// data source = patent US20220396632A1

Target: T1, Sulfotyr fibrinogen γ peptide (not fully specified; Y8 and Y12 sulfated (SO3); C-terminal biotin)
T1 construct: also called Fibrinogen gamma peptide; human sulfotyrosinylated fibrinogen peptide
T1 peptide: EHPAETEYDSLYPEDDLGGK
Assay: ELISA, 50 nM mAb
binding normalized to PSGL-1 reference
Number only, no unit.

03B01 (antibody, IgG4, V domains shown) VH: QMQLVQSGAEVKKPGASVKVSCRASGYRFSTYAISWVRQAPGQGLEWIGWISTHHGNTKYAQKFQDRVTMTADASTSIAYMELRSLRSDDTAVYYCAAAIGNYWGQGTLVTVSS VL: EIVLTQSPAILSVSPGERASLSCRASQSVSSKLAWYQQKPGQAPRLLIYGASTRATGIPPRFSGSGSGTDFTLTISSLEPEDFAVYYCQQRSNWPLTFGGGTKVEIK | 1.23

Value lookup for binding normalized to PSGL-1; key = 05A11 (antibody, IgG4, V domains shown) VH: EVKLLESGGGVVQPGRSLRLSCAASGFSFSAYGMHWVRQAPGKGLEWVSSISGSGDGTYYADSVKGRFTISRDNSKNTLYLQMNSLRAEDAAVYYCAKSVKGRGYFFDYWGQGTLVTVSS VL: DIVLTQSPSSLSASVGDRVTITCRASQSISSYLNWYQQKPGKAPKLLIYAASSLQSGVPSRFSGSGSGTDFTLSISNLQPEDFATYYCQQAYKFPRSFGGGTKVEFK
0.87

// lookup binding normalized to PSGL-1 for 02E06 (antibody, IgG4, V domains shown) VH: QVQLVQSGAEVKKPGASVKVSCKASGYSFTDYYMHWVRQAPGQGLEWMGWMNPNSGNTGYAQTFQGRVTMTRNTSISTAYMELSSLRSEDTAVYYCARGRRVRGTPTFEYWGQGTLVTVSS VL: QSVVTQPPSASGTPGQRVTISCSGRSSNIGSYTVNWFQHLPGTGPKLLIYGNNQRPSGVPGRFSGSKSGTSASLAISGLQSNDEATYYCAAWDDSLNGHYVFGTGTKVTVL
1.34
